# Assay Details: inhibition of PAO1 biofilm formation – strain PAO1, LB-PBS medium, absorbance 600 nm, primary screen (AID 1176); also: test concentration not given here
# Study Conditions: P. aeruginosa PAO1 growth/biofilm, A600, 12 h; higher = more signal
Reported Property: z-score
// keep it numeric: no unit symbol after the value

Examples from the recorded data:
>  <Molecule>
CN(C)c1ccc(C(O)C2C=CC3C(=O)NC(=O)C3N2Nc2ccccn2)cc1 (centres undefined)

>  <Test Result>
0.503

$$$$
>  <Molecule>
C[N+](C)(C)CCCCCCNC(=O)[C@@H]1C[C@@H]2C(=O)N3CCC[C@H]3C(=O)N2[C@@H]1c1ccc(O)cc1

>  <Test Result>
-0.984

$$$$
>  <Molecule>
COc1ccc([Si](C)(C)[C@@H]2[C@@H](CCO)O[C@]3(C(=O)N(Cc4ccccc4)c4ccc(N5CCOC5=O)cc43)[C@H]2C)cc1

>  <Test Result>
0.933

$$$$

Field: next molecule
The molecule listed as COc1cccc(C)c1NC(=O)O[C@H]1[C@H](OC(=O)Nc2ccc3c(c2)OCO3)[C@@H](OC(=O)Nc2ccc3c(c2)OCO3)[C@@H](OC)O[C@@H]1CO has a reported z-score of 3.29

====

# Test Target: Calmodulin-1 (Homo sapiens)
# Assay Details: small molecules binding calmodulin-1 with EGTA – biochemical, small-molecule microarray, Cy5-labelled CALM1, profiling panel (AID 1111);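 also: labelled calmodulin applied in Tris saline Tween buffer holding calcium plus EGTA and DTT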
# Study Conditions: Cy5-CALM1 binding fluorescence, higher = more signal
Reported Property: composite z-score
Keep the answer to the number alone.

>  <Compound>
CC(C)(C)OC(=O)CC[C@@]1(C(=O)NCC(O)CO)N=C(c2ccc(OCCCO)cc2)O[C@@H]1c1ccccc1CN=[N+]=[N-] (stereo not given in full)

>  <composite z-score>
1.25

$$$$
>  <Compound>
CC1CC/C=C\[C@H]2OC34C=CCN(C(C)C)C(=O)[C@H]3N(CCO)C(=O)[C@@H]4C2C(=O)O1 (stereo not given in full)

>  <composite z-score>
-0.377

$$$$
>  <Compound>
COC(=O)[C@@]1(Cc2ccc(OC)cc2)[C@H]2c3cc(C(=O)N4CCCC4)n(CCc4c[nH]c5ccc(OC)cc45)c3C[C@H]2CN1C(=O)c1ccccc1

>  <composite z-score>
2.28

$$$$
>  <Compound>
O=C1C2C=CC(C(O)C3CC=CCC3)N(Nc3ccccc3)C2C(=O)N1c1ccccc1 (stereo not given)

>  <composite z-score>
1.08

$$$$
>  <Compound>
C[N+](C)(C)CCCC[C@@H]1NC(=O)[C@@H]2C[C@H](C(=O)NCCCCCCN)[C@H](c3cccc(OCCO)c3)N2C1=O

>  <composite z-score>
2.6

$$$$

// recorded composite z-score for COc1cccc(C)c1NC(=O)O[C@H]1[C@H](OC(=O)Nc2ccccc2-c2ccccc2)[C@H](OC(=O)Nc2ccccc2-c2ccccc2)[C@@H](OC)O[C@@H]1CO : 1.72

# composite z-score of CCOc1cc(C(O)C2C=CC3C(=O)NC(=O)C3N2Nc2ccc(Cl)cc2Cl)ccc1O (stereo not given) = -0.07

====

# Test Target: NADPH oxidase 2 (Homo sapiens)
# Assay Details: compounds shifting NOX2 Amplex Red fluorescence – cell-based, HEK293-NOX2, PMA-stimulated, NOX inhibitor project, primary screen (AID 1159); also: test concentration not given here
# Study Conditions: 45 min, higher = more signal, called active from +8 up or from −8 down
Reported Property: z-score
Number only, please.

Consider the reported z-score for these compounds:
>  <Compound>
CC1CC/C=C\[C@H]2OC34C=CCN(C(C)(C)C)C(=O)[C@H]3N(CCCCCO)C(=O)[C@@H]4C2C(=O)O1 (stereo not given in full)

>  <Test Target>
NADPH oxidase 2 (Homo sapiens)

>  <Test Result>
0.673

$$$$
>  <Compound>
COCCCNC(=O)[C@@H]1c2ccccc2C(=O)N(C(C)C)[C@H]1c1ccc(CO)cc1

>  <Test Target>
NADPH oxidase 2 (Homo sapiens)

>  <Test Result>
0.161

$$$$
>  <Compound>
CS(=O)(=O)CCOC(=O)C1=CC(c2ccc(CO)cc2)=CC(C2CC2)N(Cc2sc3ccccc3c2Cl)C=C1C(=O)OCCS(C)(=O)=O (stereo not given)

>  <Test Target>
NADPH oxidase 2 (Homo sapiens)

>  <Test Result>
0.932

$$$$
>  <Compound>
CN(C)CCCCCCNC(=O)[C@@H]1C[C@@H]2C(=O)N3CCC[C@H]3C(=O)N2[C@@H]1c1cccc(OCCO)c1

>  <Test Target>
NADPH oxidase 2 (Homo sapiens)

>  <Test Result>
1.03

$$$$

// field: z-score; key: CN(C)c1ccc(C(O)C2C=CC3C(=O)NC(=O)C3N2Nc2ccccn2)cc1 (stereo not given) ; value = -2.21

Entry CC(C)C(CO)N1C(=O)[C@@H]2C3C(=O)OCCC/C=C\[C@H]3OC23C=CCN(Cn2nnc4ccccc42)C(=O)[C@@H]13 (stereo not given in full) , z-score reported as 1.23

====

# Assay Details: viability profiling in MM1S myeloma cells – cell-based, resazurin fluorescence, basal, 24 h, PK04 Diversity Set, profiling panel (AID 1174);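 also: MM1S multiple myeloma cell line; test concentration not given here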
# Study Conditions: higher = more signal, called active from +8 up or from −8 down
# cutoff -1 applies to z-score; >= gives MET, < gives NOT MET

>  <Molecule>
O=C(O)[C@@H]1[C@@H]2C(=O)N(c3ccccc3)C(=O)[C@@H]2C[C@@H]1Sc1ccccc1

>  <Discrete Label>
MET

$$$$
>  <Molecule>
C=C[C@@H](CO)N(Cc1ccc(OC)cc1)S(=O)(=O)c1ccc(Br)cc1

>  <Discrete Label>
MET

$$$$
>  <Molecule>
CC(=O)N1CC2(CC2)CC1c1ccccc1 (centres undefined)

>  <Discrete Label>
NOT MET

$$$$

Item CCOC(=O)C1=C[C@@H](C(C)C)N(S(=O)(=O)c2ccc(C)cc2)[C@H]1c1ccc(C(F)(F)F)cc1 with z-score of -1 or above?
MET

Is reported z-score greater than or equal to -1 here: CO[C@H]1O[C@H](CO)[C@@H](OC(=O)Nc2ccccc2)[C@H](OC(=O)c2cc3ccccc3[nH]2)[C@H]1OC(=O)c1cc2ccccc2[nH]1
NOT MET

Could you tell me if the measured z-score of CN(C)C(=O)[C@@]1(Cc2ccccc2)N=C(c2ccc(OCCCO)cc2)O[C@H]1c1ccccc1 reaches -1 or more?
MET

Form field: z-score at least -1? Entry: CCOC(=O)[C@@H]1CCCCN1C(=O)C(=O)OC
MET

API: above_or_equal(metric=z-score, cutoff=-1) for item CC1CC/C=C\[C@H]2OC34C=CCN(Cc5ccccc5)C(=O)[C@H]3N(C(CO)C(C)C)C(=O)[C@@H]4C2C(=O)O1 (some centres undefined)
MET

Could you verify whether the entry COc1cc2c(cc1O)C(c1ccc(CN3CCCC3)cc1)N(Cc1cc3c(cc1Br)OCO3)CC2 (centres undefined) shows z-score of no less than -1?
NOT MET

====

# Test Target: Left-right determination factor 2 (Homo sapiens) (UniProt O00292)
# Sequence (O00292 whole entry, looked up): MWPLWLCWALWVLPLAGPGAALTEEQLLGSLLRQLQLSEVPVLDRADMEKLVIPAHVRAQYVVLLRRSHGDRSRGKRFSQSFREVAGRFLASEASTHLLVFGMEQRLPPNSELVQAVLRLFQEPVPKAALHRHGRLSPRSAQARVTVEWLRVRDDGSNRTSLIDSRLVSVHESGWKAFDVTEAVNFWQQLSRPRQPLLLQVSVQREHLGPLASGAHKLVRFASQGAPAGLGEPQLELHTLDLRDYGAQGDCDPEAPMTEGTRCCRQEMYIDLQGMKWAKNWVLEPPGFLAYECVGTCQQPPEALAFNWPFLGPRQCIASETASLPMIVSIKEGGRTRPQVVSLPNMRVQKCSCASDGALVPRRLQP
# Assay Details: small molecules binding LEFTY2 protein – biochemical, small-molecule microarray, 635 nm fluorescence scan, primary screen (AID 1110)
# Study Conditions: higher = more signal
Reported Property: composite z-score
Enter a number only.

>  <Compound>
NC(=O)NCC#Cc1ccc2c(c1)[C@]1(C(=O)N2)[C@H](c2ccccc2OCCO)N2[C@H](c3ccccc3)[C@H](c3ccccc3)OC(=O)[C@H]2[C@@H]1C(=O)O

>  <composite z-score>
-0.351

$$$$
>  <Compound>
CC(C)C(CO)N1C(=O)[C@@H]2[C@H]3C(=O)OCC=C[C@H]3OC23C=CCN(c2ccc(Cl)cc2)C(=O)[C@@H]13 (some centres not stated)

>  <composite z-score>
-0.433

$$$$
>  <Compound>
O=C(c1ccccc1)N1C(=O)[C@]2(Cc3ccccc31)N=C(c1ccc(OCCCO)cc1)O[C@@H]2c1ccccc1

>  <composite z-score>
0.148

$$$$
>  <Compound>
CO[C@H]1O[C@H](CO)[C@@H](OC(=O)Nc2ccc3c(c2)OCO3)[C@H](OC(=O)Nc2ccc3c(c2)OCO3)[C@@H]1OC(=O)Nc1ccc2c(c1)OCO2

>  <composite z-score>
0.472

$$$$
>  <Compound>
CC(C)C[C@@H]1NC(=O)[C@@H]2C[C@H](C(=O)NCCCCCCN)[C@H](c3cccc(OCCO)c3)N2C1=O

>  <composite z-score>
0.281

$$$$
>  <Compound>
O=C1N(Cc2ccccc2)c2ccccc2C[C@]12N=C(c1ccc(OCCCO)cc1)O[C@@H]2c1ccccc1

>  <composite z-score>
0.133

$$$$

Shifting focus to the compound that follows.
# composite z-score of O=C(NCc1ccc(F)cc1)[C@H]1C[C@H]2C(=O)NCC(=O)N2[C@H]1c1ccc(O)cc1 = 0.887

====

# Test Target: Concanavalin-A (Canavalia ensiformis) (UniProt P02866)
# Sequence (P02866 whole entry, looked up): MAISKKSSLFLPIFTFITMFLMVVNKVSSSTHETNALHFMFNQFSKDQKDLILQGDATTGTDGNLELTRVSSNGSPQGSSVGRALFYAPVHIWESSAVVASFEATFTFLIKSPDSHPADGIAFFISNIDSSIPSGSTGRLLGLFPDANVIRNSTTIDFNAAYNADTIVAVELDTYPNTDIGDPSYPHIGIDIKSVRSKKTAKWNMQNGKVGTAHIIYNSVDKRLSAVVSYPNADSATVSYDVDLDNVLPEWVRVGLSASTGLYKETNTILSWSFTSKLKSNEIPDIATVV
# Assay Details: compounds binding concanavalin A lectin – biochemical, small-molecule microarray, Alexa647 label, 635 nm, artefact control for SMM control protein annotation, primary screen (AID 1127);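 also: z combines 667 nm emission intensity with signal-to-noise across three replicate slides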
# Study Conditions: ConA-A647 binding fluorescence, higher = more signal
Reported Property: composite z-score

Here are 4 compounds together with their reported answers.
>  <Compound>
COc1cc2c(cc1O)C(C1CC1)N(Cc1cccc(OC(F)(F)F)c1)CC2 (configuration not stated)

>  <composite z-score>
-0.744

$$$$
>  <Compound>
C=CCC(OC(C)=O)[C@@H]1[C@@H](N(Cc2cccc3ccccc23)C(=O)Cc2ccc(F)cc2)c2cc(OCCCO)ccc2N1C(=O)c1ccc2ccccc2c1 (some centres not stated)

>  <composite z-score>
-0.15

$$$$
>  <Compound>
COC(=O)[C@@]1(Cc2ccc(F)cc2)[C@H]2c3cc(C(=O)N4CCCC4)n(Cc4ccc(C)c(F)c4F)c3C[C@H]2CN1C(=O)c1ccccc1

>  <composite z-score>
-0.927

$$$$
>  <Compound>
CCOC(=O)C[C@H]1[C@H](OC(=O)Cc2ccc3c(c2)OCO3)[C@@H](NC(=O)c2ccc3ccccc3n2)c2cc(OCCCO)ccc2N1C(=O)c1ccccc1

>  <composite z-score>
0.321

$$$$

Reported composite z-score (Concanavalin-A (Canavalia ensiformis) (UniProt P02866)) for entry CCCNC(=O)[C@@]1(C)c2ccccc2C(=O)N(c2ccc(C)cn2)[C@H]1c1ccc(CO)cc1 is -0.283

For the compound COc1cc(NN2C(C(O)c3ccc(N(C)C)cc3)C=CC3C(=O)N(c4ccccc4)C(=O)C32)cc(OC)c1OC (configuration not stated) , the measured composite z-score on Concanavalin-A (Canavalia ensiformis) (UniProt P02866) was 0.0693

Param item: NC(=O)[C@H]1[C@@H]2C(=O)O[C@@H](c3ccccc3)[C@@H](c3ccccc3)N2[C@@H](c2ccc(OCCO)cc2)[C@]12C(=O)Nc1ccc(C#CCCO)cc12 ; param system: Concanavalin-A (Canavalia ensiformis) (UniProt P02866); output composite z-score: 1.07
